- test-system: Protein mono-ADP-ribosyltransferase PARP12 (Homo sapiens)
- Sequence (Q9H0J9 whole entry): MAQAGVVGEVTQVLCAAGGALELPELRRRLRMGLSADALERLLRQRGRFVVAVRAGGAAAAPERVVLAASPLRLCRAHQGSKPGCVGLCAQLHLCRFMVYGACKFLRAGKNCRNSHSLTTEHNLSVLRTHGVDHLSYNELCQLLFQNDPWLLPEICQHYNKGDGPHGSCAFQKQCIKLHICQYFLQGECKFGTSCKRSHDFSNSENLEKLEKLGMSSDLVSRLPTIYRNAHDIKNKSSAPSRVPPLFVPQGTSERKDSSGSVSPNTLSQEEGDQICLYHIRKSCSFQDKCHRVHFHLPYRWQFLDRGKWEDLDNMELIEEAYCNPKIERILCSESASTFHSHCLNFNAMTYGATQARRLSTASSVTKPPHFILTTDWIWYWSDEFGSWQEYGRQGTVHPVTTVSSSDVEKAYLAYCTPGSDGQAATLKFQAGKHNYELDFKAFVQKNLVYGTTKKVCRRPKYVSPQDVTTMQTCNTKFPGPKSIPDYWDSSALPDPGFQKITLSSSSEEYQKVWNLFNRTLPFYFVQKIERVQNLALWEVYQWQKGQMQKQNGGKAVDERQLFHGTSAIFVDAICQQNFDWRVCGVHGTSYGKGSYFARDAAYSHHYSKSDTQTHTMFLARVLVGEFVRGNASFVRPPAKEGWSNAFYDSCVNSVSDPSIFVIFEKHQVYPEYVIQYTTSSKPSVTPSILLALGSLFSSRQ
- test-name: Inhibition of human recombinant N-terminal GST-tagged PARP12 (500 to 701 end residues) expressed in baculovirus infected Sf9 cells expression system incubated for 1 hr by ELISA assay
measure: pIC50
Answers are plain numbers, as −log10 of the molar value.

Asked: Note pIC50 for the compound shown: C[C@@H](CN1CC(C(=O)N2CCN(c3ncc(C(F)(F)F)cn3)CC2)C1)Nc1cn[nH]c(=O)c1C(F)(F)F
Given back: 6.34

###

- test-name: MRT(0 to infinity) in ICR mouse at 10 mg/kg, po measured upto 24 hrs by LC-MS/MS analysis
- Format: ADME, organism-based
- test-settings: in vivo
measure: MRT inf (h)
One number for each entry, in h.

I would be grateful if you could provide MRT inf for each of the following entries.
1. C[C@@H](CN1CC(C(=O)N2CCN(c3ncc(C(F)(F)F)cn3)CC2)C1)Nc1cn[nH]c(=O)c1C(F)(F)F
2. C[C@@H](COCCC(=O)N1CCN(c2ncc(C(F)(F)F)cn2)CC1)Nc1cn[nH]c(=O)c1C(F)(F)F

Given back:
1. 1.97
2. 0.9

###

- test-system: Protein mono-ADP-ribosyltransferase TIPARP (Homo sapiens) (UniProt Q7Z3E1)
- Sequence (whole entry): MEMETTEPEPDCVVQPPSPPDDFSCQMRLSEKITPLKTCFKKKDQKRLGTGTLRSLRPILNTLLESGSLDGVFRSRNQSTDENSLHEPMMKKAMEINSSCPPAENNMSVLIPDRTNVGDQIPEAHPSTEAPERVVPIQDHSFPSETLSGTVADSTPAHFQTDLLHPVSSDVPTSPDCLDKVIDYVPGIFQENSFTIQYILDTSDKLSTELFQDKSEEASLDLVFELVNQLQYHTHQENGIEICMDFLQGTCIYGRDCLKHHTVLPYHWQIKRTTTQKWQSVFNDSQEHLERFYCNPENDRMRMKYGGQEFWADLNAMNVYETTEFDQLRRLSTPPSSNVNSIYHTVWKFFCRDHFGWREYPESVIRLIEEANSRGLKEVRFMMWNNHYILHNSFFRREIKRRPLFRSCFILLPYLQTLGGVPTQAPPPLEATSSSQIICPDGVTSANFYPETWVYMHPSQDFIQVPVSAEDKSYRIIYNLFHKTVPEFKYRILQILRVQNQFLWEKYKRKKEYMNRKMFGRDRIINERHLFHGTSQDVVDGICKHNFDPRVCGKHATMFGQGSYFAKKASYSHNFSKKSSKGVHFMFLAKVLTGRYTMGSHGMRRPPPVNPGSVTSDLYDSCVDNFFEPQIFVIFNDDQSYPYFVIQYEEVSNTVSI
- test-name: Inhibition of human recombinant N-terminal FLAG tagged PARP7 (400 to 657 end residues) at 100 nM incubated for 1 hr by ELISA assay relative to control
measure: inhibition (%)
One number for each entry, in %.

Below, 3 compounds whose answers are already recorded.
> print(dat)
                                   compound                               test.system  readout.number
1  C[C@@H](CN1CC(C(=O)N2CCN(c3ncc(F)cn3)CC2)C1)Nc1cn[nH]c(=O)c1C(F)(F)F  Protein mono-ADP-ribosyltransferase TIPARP (Homo sapiens) (UniProt Q7Z3E1)              26
2  C[C@@H](CN1CC(C(=O)N2CCN(c3nccc(C(F)(F)F)n3)CC2)C1)Nc1cn[nH]c(=O)c1C(F)(F)F  Protein mono-ADP-ribosyltransferase TIPARP (Homo sapiens) (UniProt Q7Z3E1)              65
3  C[C@@H](CN1CC(C(=O)N2CCN(c3ncc(Br)cn3)CC2)C1)Nc1cn[nH]c(=O)c1C(F)(F)F  Protein mono-ADP-ribosyltransferase TIPARP (Homo sapiens) (UniProt Q7Z3E1)            85.5

I would be grateful if you could provide inhibition for each of the following entries.
1. C[C@@H](CN1CC(C(=O)N2C3CC2CN(c2ncc(C(F)(F)F)cn2)C3)C1)Nc1cn[nH]c(=O)c1C(F)(F)F
2. C[C@@H](CN1CC(C(=O)N2CCN(c3cccc4c3oc3ccccc34)CC2)C1)Nc1cn[nH]c(=O)c1C(F)(F)F

Given back:
55.5
35

I would be grateful if you could provide inhibition for each of the following entries.
1. COc1cnc(N2CCN(C(=O)C3CN(C[C@H](C)Nc4cn[nH]c(=O)c4C(F)(F)F)C3)CC2)nc1
2. C[C@@H](CN1CC(C(=O)N2CCN(c3ccc4c(c3)OC(F)(F)O4)CC2)C1)Nc1cn[nH]c(=O)c1C(F)(F)F

Given back:
56
90

I would be grateful if you could provide inhibition for each of the following entries.
1. C[C@@H](CN1CC(C(=O)N2CCN(c3ncc(S(C)(=O)=O)cn3)CC2)C1)Nc1cn[nH]c(=O)c1C(F)(F)F
2. C[C@@H](CN1CC(C(=O)N2CCN(c3ccc(C(F)(F)F)cc3)CC2)C1)Nc1cn[nH]c(=O)c1C(F)(F)F
3. O=C(C1CN(CCNc2cn[nH]c(=O)c2C(F)(F)F)C1)N1CCN(c2ncc(C(F)(F)F)cn2)CC1

Given back:
1. 95
2. 32
3. 66.8
